- experimentNotes: Cell viability assay (CCK-8)
- Format: cell-based, mouse
- conditions: mouse, bv2 cells; VD + additive propylene glycol (PG), 100 µM

compound | unitLabel | viability at 100 µM
COc1cc(C(=O)NCCc2ccc(O)c(O)c2)ccc1O [VD] | % | 84.7

====

- experimentNotes: Cell viability assay (CCK-8)
- Type: cell-based, mouse
- conditions: mouse, bv2 cells; VD + additive propylene glycol (PG), 200 µM
measurementKind: viability at 200 µM (%)

compound | unitLabel | valueReported
COc1cc(C(=O)NCCc2ccc(O)c(O)c2)ccc1O [VD] | % | 60.1

Sourced from patent EP4775203A1
